Listed next: entries and their corresponding % Responders.
- Tested on: PBMC from healthy, seropositive donors
- Assay type: cell-based, human

| POLYMER_SEQUENCE | % Responders [%] |
| --- | --- |
| SVLAQEAPARQHRIDMHGMR [BPSS1531_P31] | 88.6 |
| RDKEAGVALRATFIVDPDNT [BPSL2096_P13] | 94.1 |
| GALVGGVTGYNWQAIKNKLA [BPSL0999_P7] | 80.9 |
| DAAAKLERLLPEQGPRAPLA [BPSS1599_P36] | 89.6 |
| HFQQLERHLAHQASLRLGQT [BPSS0530_P3] | 83.7 |
| NANLGGIAPPEFVRAIDVPG [BPSS1599_P40] | 89.6 |
| GVALVAAAFVGASAVKAVAS [BPSS1532_P45] | 83.9 |
| LGAMVSRAIALEGAFYNGRR [BPSS1599_P8] | 89.6 |
| TPEIRQDAEFGRQVYEATLC [BPSS1525_P11] | 84.6 |
| QIPYYAQSTYFEVESTDPFW [BPSS0530_P41] | 81.4 |
| CIGKIVGWVITAVSFAAAAF [BPSS1532_P35] | 87.1 |
| AWAERFDRYLDDADALVASA [BPSL2504_P8] | 91.4 |
